# TEST TARGET: purified human HDAC6 (Homo sapiens)
# Construct: purchased BPS Bioscience 5006
# METHOD SUMMARY: HDAC6 Enzyme Assay
# Type: biochemical
# MEASUREMENT CONTEXT: compound concentration 0.37 μM, read-out: Percent Inhibition
inhibition at 0.37 µM below 90% gives false; inhibition at 0.37 µM at or above it gives true.

Some solved cases for reference:
Exercise: Assess whether reported inhibition at 0.37 µM for `O=C(NO)c1ccc2ccn(Cc3cccc(-n4cccn4)c3)c(=O)c2c1` sits at 90% or higher.
Solution: true

Exercise: Assess whether reported inhibition at 0.37 µM for `O=C(NO)c1ccc2ncn(CCc3cccc(-c4cc(Cl)cc(Cl)c4)c3)c(=O)c2c1` sits at 90% or higher.
Solution: false

Exercise: Assess whether reported inhibition at 0.37 µM for `O=C(NO)c1ccc2ccn(CCc3ccccn3)c(=O)c2c1` sits at 90% or higher.
Solution: true

Exercise: Assess whether reported inhibition at 0.37 µM for `CNCc1cn(Cc2ccccc2)c(=O)c2cc(C(=O)NO)ccc12` sits at 90% or higher.
Solution: false

Exercise: Assess whether reported inhibition at 0.37 µM for `Cc1cn(Cc2ccccc2)c(=O)c2cc(C(=O)NO)ccc12` sits at 90% or higher.
Solution: false

Further cases:
Exercise: Assess whether reported inhibition at 0.37 µM for `O=C(NO)c1ccc2ccn(-c3ccccc3)c(=O)c2c1` sits at 90% or higher.
Solution: true

Exercise: Assess whether reported inhibition at 0.37 µM for `O=C(NO)c1ccc2ccn(-c3cccc(Cl)c3)c(=O)c2c1` sits at 90% or higher.
Solution: true

Exercise: Assess whether reported inhibition at 0.37 µM for `Cc1ncc(-c2nc3cc(C(=O)NO)ccc3c(=O)[nH]2)n1C` sits at 90% or higher.
Solution: false

Exercise: Assess whether reported inhibition at 0.37 µM for `CS(=O)(=O)c1cccc(Cn2cnc3ccc(C(=O)NO)cc3c2=O)c1` sits at 90% or higher.
Solution: true

Exercise: Assess whether reported inhibition at 0.37 µM for `O=C(NO)c1ccc2c(=O)n(Cc3ccc(C(F)(F)F)cc3)c(CCc3ccccc3)nc2c1` sits at 90% or higher.
Solution: false

Exercise: Assess whether reported inhibition at 0.37 µM for `O=C(NO)c1ccc2c(=O)[nH]c(CCc3ccccc3)nc2c1` sits at 90% or higher.
Solution: true

---

Measured inhibition at 0.412 µM of individual entries
# TEST TARGET: purified human HDAC6 (Homo sapiens, UniProt Q9UBN7)
# Construct: purchased BPS Bioscience 5006
# Sequence (Q9UBN7 1-1215): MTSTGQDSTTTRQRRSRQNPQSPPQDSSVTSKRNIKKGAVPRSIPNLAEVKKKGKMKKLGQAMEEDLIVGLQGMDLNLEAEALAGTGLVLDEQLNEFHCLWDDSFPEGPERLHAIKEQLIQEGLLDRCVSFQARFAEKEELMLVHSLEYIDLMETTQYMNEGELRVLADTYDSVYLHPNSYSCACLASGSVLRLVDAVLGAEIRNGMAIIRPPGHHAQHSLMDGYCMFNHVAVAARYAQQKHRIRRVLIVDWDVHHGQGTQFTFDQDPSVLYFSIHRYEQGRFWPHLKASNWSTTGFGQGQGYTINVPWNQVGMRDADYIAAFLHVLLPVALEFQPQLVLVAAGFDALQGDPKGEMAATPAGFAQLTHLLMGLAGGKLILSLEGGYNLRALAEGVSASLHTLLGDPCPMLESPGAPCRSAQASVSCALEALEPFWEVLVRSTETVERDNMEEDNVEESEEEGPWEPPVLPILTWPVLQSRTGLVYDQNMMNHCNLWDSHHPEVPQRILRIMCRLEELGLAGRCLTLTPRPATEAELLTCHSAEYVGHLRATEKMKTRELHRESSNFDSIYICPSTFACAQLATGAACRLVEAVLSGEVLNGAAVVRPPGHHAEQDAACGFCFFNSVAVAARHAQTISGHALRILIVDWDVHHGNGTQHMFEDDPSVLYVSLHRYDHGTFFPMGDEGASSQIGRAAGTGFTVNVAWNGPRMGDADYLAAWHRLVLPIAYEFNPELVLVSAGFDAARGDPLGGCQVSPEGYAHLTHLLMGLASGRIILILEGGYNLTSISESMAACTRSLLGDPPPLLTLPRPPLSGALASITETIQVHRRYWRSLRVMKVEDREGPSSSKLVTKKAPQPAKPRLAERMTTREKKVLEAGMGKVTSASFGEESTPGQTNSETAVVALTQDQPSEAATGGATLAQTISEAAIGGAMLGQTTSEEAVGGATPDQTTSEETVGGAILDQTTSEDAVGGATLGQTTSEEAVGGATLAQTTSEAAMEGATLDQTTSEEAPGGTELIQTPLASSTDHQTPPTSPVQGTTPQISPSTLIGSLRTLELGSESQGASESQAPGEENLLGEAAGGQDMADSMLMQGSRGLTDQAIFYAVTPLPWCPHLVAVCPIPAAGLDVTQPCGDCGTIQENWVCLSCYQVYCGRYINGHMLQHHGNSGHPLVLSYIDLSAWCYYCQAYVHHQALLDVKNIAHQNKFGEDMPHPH
# METHOD SUMMARY: HDAC6 Enzyme Assay
# Type: biochemical
# MEASUREMENT CONTEXT: compound concentration 0.412 μM, read-out: Percent Inhibition

Worked cases, inhibition at 0.412 µM given:
Exercise: So what does the record say about inhibition at 0.412 µM for CCCC(C)n1ccc2ccc(C(=O)NO)cc2c1=O (stereo not shown) ?
Solution: 91.8%

Exercise: So what does the record say about inhibition at 0.412 µM for `O=C(NO)c1ccc2ncn(Cc3ccccn3)c(=O)c2c1` ?
Solution: 79.1%

Exercise: So what does the record say about inhibition at 0.412 µM for `CCN(CC)Cc1nc2cc(C(=O)NO)ccc2c(=O)[nH]1` ?
Solution: 60.5%

Further cases:
Exercise: So what does the record say about inhibition at 0.412 µM for `O=C(NO)c1ccc2ccn(CCN(Cc3cccc(C(F)(F)F)c3)Cc3cccc(C(F)(F)F)c3)c(=O)c2c1` ?
Solution: 57.5%

Exercise: So what does the record say about inhibition at 0.412 µM for `O=C(NO)c1ccc2ccn(CCCOc3ccc(-n4ccnc4)cc3)c(=O)c2c1` ?
Solution: 96.3%

Exercise: So what does the record say about inhibition at 0.412 µM for `Cc1nc2cc(C(=O)NO)ccc2c(=O)[nH]1` ?
Solution: 68.9%

Exercise: So what does the record say about inhibition at 0.412 µM for `O=C(NO)c1ccc2ccn(C3CCC3)c(=O)c2c1` ?
Solution: 93.1%

Exercise: So what does the record say about inhibition at 0.412 µM for `O=C(NO)c1ccc2ncn(Cc3ccc(C(F)(F)F)cc3)c(=O)c2c1` ?
Solution: 93.6%

Exercise: So what does the record say about inhibition at 0.412 µM for `O=C(NO)c1ccc2ccn(Cc3cccc(OC(F)(F)F)c3)c(=O)c2c1` ?
Solution: 95.1%

Exercise: So what does the record say about inhibition at 0.412 µM for `O=C(NO)c1ccc2c(=O)n(Cc3ccc(C(F)(F)F)cc3)c(C3CCCCC3)nc2c1` ?
Solution: 30.1%

---

Measured inhibition at 0.412 µM of individual entries
# TEST TARGET: purified human HDAC6 (Homo sapiens)
# Construct: purchased BPS Bioscience 5006
# METHOD SUMMARY: HDAC6 Enzyme Assay
# Assay type: biochemical
# MEASUREMENT CONTEXT: compound concentration 0.412 μM, read-out: Percent Inhibition
Give the value, in units of %, as a plain number.

Worked cases, inhibition at 0.412 µM given:
Exercise: So what does the record say about inhibition at 0.412 µM for `Cc1ccc(OCCn2ccc3ccc(C(=O)NO)cc3c2=O)cc1` ?
Solution: 96.9

Exercise: So what does the record say about inhibition at 0.412 µM for `O=C(NO)c1ccc2ccn(Cc3cccc4cccnc34)c(=O)c2c1` ?
Solution: 89.7

Exercise: So what does the record say about inhibition at 0.412 µM for `O=C(NO)c1ccc2ccn(Cc3ccccc3Cl)c(=O)c2c1` ?
Solution: 94.2

# context switch: different molecule, same inhibition at 0.412 µM
Exercise: So what does the record say about inhibition at 0.412 µM for `O=C(NO)c1ccc2ccn(CCCOCc3ccccc3)c(=O)c2c1` ?
Solution: 92.5

---

Measured inhibition at 0.412 µM of individual entries
# TEST TARGET: purified human HDAC6 (Homo sapiens, UniProt Q9UBN7)
# Construct: purchased BPS Bioscience 5006
# Sequence (Q9UBN7 1-1215): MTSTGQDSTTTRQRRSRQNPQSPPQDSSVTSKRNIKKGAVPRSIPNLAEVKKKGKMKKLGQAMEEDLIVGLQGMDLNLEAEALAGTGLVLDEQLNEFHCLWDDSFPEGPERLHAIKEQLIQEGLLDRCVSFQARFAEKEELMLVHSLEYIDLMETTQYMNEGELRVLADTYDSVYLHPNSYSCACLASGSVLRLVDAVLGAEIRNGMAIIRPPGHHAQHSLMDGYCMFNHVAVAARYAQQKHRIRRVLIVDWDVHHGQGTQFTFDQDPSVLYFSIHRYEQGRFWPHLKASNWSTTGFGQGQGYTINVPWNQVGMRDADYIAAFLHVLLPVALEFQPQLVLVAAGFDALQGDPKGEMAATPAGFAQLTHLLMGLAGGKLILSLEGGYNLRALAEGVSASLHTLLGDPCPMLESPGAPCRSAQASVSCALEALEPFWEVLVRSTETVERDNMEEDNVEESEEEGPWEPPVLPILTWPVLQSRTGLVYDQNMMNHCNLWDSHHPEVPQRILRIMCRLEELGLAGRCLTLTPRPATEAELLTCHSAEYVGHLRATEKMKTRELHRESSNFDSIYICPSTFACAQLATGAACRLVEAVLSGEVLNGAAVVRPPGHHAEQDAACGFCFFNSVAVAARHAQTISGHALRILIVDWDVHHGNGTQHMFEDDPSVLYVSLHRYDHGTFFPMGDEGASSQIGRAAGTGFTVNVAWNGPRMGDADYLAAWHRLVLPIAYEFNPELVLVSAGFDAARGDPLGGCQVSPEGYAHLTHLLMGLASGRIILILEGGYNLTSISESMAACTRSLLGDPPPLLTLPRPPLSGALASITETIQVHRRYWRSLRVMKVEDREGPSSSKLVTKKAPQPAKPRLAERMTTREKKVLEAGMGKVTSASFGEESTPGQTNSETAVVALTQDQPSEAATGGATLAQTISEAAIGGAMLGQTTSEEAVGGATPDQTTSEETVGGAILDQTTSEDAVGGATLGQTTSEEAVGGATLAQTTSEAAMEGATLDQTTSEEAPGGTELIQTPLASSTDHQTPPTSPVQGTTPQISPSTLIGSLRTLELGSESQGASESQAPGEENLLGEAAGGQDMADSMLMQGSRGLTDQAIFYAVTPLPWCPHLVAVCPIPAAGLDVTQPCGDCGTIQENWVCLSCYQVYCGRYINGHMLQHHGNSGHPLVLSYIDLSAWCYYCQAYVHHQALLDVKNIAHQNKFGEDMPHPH
# METHOD SUMMARY: HDAC6 Enzyme Assay
# Assay type: biochemical
# MEASUREMENT CONTEXT: compound concentration 0.412 μM, read-out: Percent Inhibition
Give the value, in units of %, as a plain number.

Worked cases, inhibition at 0.412 µM given:
Exercise: So what does the record say about inhibition at 0.412 µM for O=C(NO)c1ccc2c(=O)n(CCCc3ccccc3)cnc2c1 [Compound I-74] ?
Solution: 94.8

Exercise: So what does the record say about inhibition at 0.412 µM for O=C(NO)c1ccc2ccn(C3CCCCCC3)c(=O)c2c1 [Compound I-117] ?
Solution: 93.3

Exercise: So what does the record say about inhibition at 0.412 µM for O=C(NO)c1ccc2ccn(CCO)c(=O)c2c1 [Compound I-158] ?
Solution: 72.5

Exercise: So what does the record say about inhibition at 0.412 µM for O=C(NO)c1ccc2ccn(CCOc3ccccc3Cl)c(=O)c2c1 [Compound I-204] ?
Solution: 98.7

Exercise: So what does the record say about inhibition at 0.412 µM for O=C(NO)c1ccc2c(=O)[nH]c(COc3cc(Cl)cc(Cl)c3)nc2c1 [Compound I-145] ?
Solution: 76.7

Further cases:
Exercise: So what does the record say about inhibition at 0.412 µM for O=C(NO)c1ccc2ccn(CCCOc3ccc(OCc4ccccc4)cc3)c(=O)c2c1 [Compound I-116] ?
Solution: 80.2

Exercise: So what does the record say about inhibition at 0.412 µM for O=C(NO)c1ccc2ccn(CCOc3cccc4c3CCC4)c(=O)c2c1 [Compound I-196] ?
Solution: 95.2

Exercise: So what does the record say about inhibition at 0.412 µM for Cc1cccc(Cn2ccc3ccc(C(=O)NO)cc3c2=O)c1 [Compound I-120] ?
Solution: 94.8

Exercise: So what does the record say about inhibition at 0.412 µM for O=C(NO)c1ccc2ccn(CCNc3ccc(Cl)cc3)c(=O)c2c1 [Compound I-113] ?
Solution: 95.6

Exercise: So what does the record say about inhibition at 0.412 µM for O=C(NO)c1ccc2ccn(C3CCCC3)c(=O)c2c1 [Compound I-105] ?
Solution: 86.5

Exercise: So what does the record say about inhibition at 0.412 µM for O=C(NO)c1ccc2ccn(CCCOc3cccc(C(F)(F)F)c3)c(=O)c2c1 [Compound I-176] ?
Solution: 94.2
